Entries and their ANTISPASMODIC ACTIVITY BaCl2 (dose causing complete spasm inhibition)
System: guinea-pig ileum (barium chloride contractions)
Test: Antispasmodic activity in vitro, contractions caused by barium chloride
Details: added 15 minutes before spasm-producing agent
Output spec: scalar in μg per ml, unitless text.

Some compounds with recorded ANTISPASMODIC ACTIVITY BaCl2 (dose causing complete spasm inhibition):
INSERT INTO measurements (compound, measured_target, unit_string, reported) VALUES
  ('CC(NC1CCCCCCC1)C(O)c1ccc2c(c1)CCS2 (stereo not drawn)', 'guinea-pig ileum (barium chloride contractions)', 'μg per ml', 1.7),
  ('CCCCCCCCNC(C)C(O)c1ccc2c(c1)CCCS2 (stereo not drawn)', 'guinea-pig ileum (barium chloride contractions)', 'μg per ml', 1.7),
  ('CC(NCCCCc1ccccc1)C(O)c1ccc2c(c1)CCCS2 (stereo not drawn)', 'guinea-pig ileum (barium chloride contractions)', 'μg per ml', 16.7),
  ('CC(NCCCCCc1ccccc1)C(O)c1ccc2c(c1)CCCS2 (stereo not drawn)', 'guinea-pig ileum (barium chloride contractions)', 'μg per ml', 0.8),
  ('CC(C(O)c1ccc2c(c1)CCCS2)N1CCC(Cc2ccccc2)CC1 (stereo not drawn)', 'guinea-pig ileum (barium chloride contractions)', 'μg per ml', 0.8);

The compound CC(NCCCCc1ccc(Cl)cc1)C(O)c1ccc2c(c1)CCCS2 (stereo not drawn) , when measured on guinea-pig ileum (barium chloride contractions), yielded ANTISPASMODIC ACTIVITY BaCl2 (dose causing complete spasm inhibition) of 0.8

The compound CC(NCCCCSc1ccccc1)C(O)c1ccc2c(c1)CCCS2 (stereo not drawn) , when measured on guinea-pig ileum (barium chloride contractions), yielded ANTISPASMODIC ACTIVITY BaCl2 (dose causing complete spasm inhibition) of 0.8

The compound CC(NCCCCOc1ccccc1)C(O)c1ccc2c(c1)CCCS2 (stereo not drawn) , when measured on guinea-pig ileum (barium chloride contractions), yielded ANTISPASMODIC ACTIVITY BaCl2 (dose causing complete spasm inhibition) of 1.7

The compound CC1Cc2cc(C(O)C(C)NCCCCc3ccccc3)ccc2S1 (stereo not drawn) , when measured on guinea-pig ileum (barium chloride contractions), yielded ANTISPASMODIC ACTIVITY BaCl2 (dose causing complete spasm inhibition) of 0.8

The compound CC(NC1CCCCCCC1)C(O)c1ccc2c(c1)CCCS2 (stereo not drawn) , when measured on guinea-pig ileum (barium chloride contractions), yielded ANTISPASMODIC ACTIVITY BaCl2 (dose causing complete spasm inhibition) of 1.7

###

Test system: femoral artery
Assay: Vasodilator activity, femoral artery (technique of perfused paw)
Format: in vivo
Parameters: key: O: no action; +: slight activity; ++: effect equal to half the effect of papaverine; +++: effect equal to that of papaverine; ++++: effect higher than that of papaverine
Conditions: intra-arterial, 30 mg/kg, anaesthetized dog, vs papaverine at same dose
property-label: VASODILATOR ACTIVITY

INSERT INTO assay_data (compound, property_label, reported) VALUES
  ('Cc1ccc(CCCCNC(C)C(O)c2ccc3c(c2)CC(C)O3)cc1 (stereo not shown)', 'VASODILATOR ACTIVITY', '++++'),
  ('CC1Cc2cc(C(O)C(C)NCCCCc3ccc(Cl)cc3)ccc2O1 (stereo not shown)', 'VASODILATOR ACTIVITY', '+++'),
  ('CCCCCCCCNC(CC)C(O)c1ccc2c(c1)CCS2 (stereo not shown)', 'VASODILATOR ACTIVITY', '++++'),
  ('CC(NCCOc1ccc(C(C)(C)C)cc1)C(O)c1ccc2c(c1)CCC2 (stereo not shown)', 'VASODILATOR ACTIVITY', '+++'),
  ('CC(C)NC(C)C(O)c1ccc2c(c1)CCS2 (stereo not shown)', 'VASODILATOR ACTIVITY', '+++');

// sample CC(NCCCC(=O)c1ccc(F)cc1)C(O)c1ccc2c(c1)CCS2 (stereo not shown) , its VASODILATOR ACTIVITY was +++

// sample CC(C(O)c1ccc2c(c1)CCC2)N1CCC(Cc2ccccc2)CC1 (stereo not shown) , its VASODILATOR ACTIVITY was ++++

// sample CCCCCCCCNC(C)C(O)c1ccc2c(c1)CC(C)O2 (stereo not shown) , its VASODILATOR ACTIVITY was +++

// sample CCCCOCCOCCCNC(C)C(O)c1ccc2c(c1)CCCS2 (stereo not shown) , its VASODILATOR ACTIVITY was ++

// sample CC(NCCCCc1ccccc1)C(O)c1ccc2c(c1)CCC2 (stereo not shown) , its VASODILATOR ACTIVITY was ++

// sample CC(NCCCCCc1ccccc1)C(O)c1ccc2c(c1)CCCS2 (stereo not shown) , its VASODILATOR ACTIVITY was ++++

// sample CC(NCCOc1ccccc1)C(O)c1ccc2c(c1)SCCO2 (stereo not shown) , its VASODILATOR ACTIVITY was ++++

// sample CC(NCCCCc1ccccc1)C(O)c1ccc2c(c1)CCCS2 (stereo not shown) , its VASODILATOR ACTIVITY was ++++

// sample CC1Cc2cc(C(O)C(C)NCCOCc3ccccc3)ccc2S1 (stereo not shown) , its VASODILATOR ACTIVITY was +++

// sample C#CC(C)(C)NC(C)C(O)c1ccc2c(c1)CCCS2 (stereo not shown) , its VASODILATOR ACTIVITY was ++

// sample CC1Cc2cc(C(O)C(C)NCCCN3CCCC3)ccc2O1 (stereo not shown) , its VASODILATOR ACTIVITY was 0
